B1: library; a variant is named by its letters at N, in order (parent)
chain: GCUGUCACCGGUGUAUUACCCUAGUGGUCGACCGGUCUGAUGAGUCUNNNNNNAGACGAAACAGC

Variants of: B1
Assay: normalized RNA/DNA level without ligand (relative to sTRSVctl = 100) (log10 (% of sTRSVctl)); ligand: hypoxanthine (xanthine aptamer); higher = less ribozyme self-cleavage, higher mRNA level
Settings: HEK293T, reporter: mCherry (pCS4076), ligand present: no
Hi there, I'd appreciate the recorded normalized RNA/DNA level without ligand (log10) for every entry that follows.
Answer field: number only, no words.

Task item: Retrieve normalized RNA/DNA level without ligand (log10) measured for `CUGACG` and print it.
Reply: 1.86

Task item: Retrieve normalized RNA/DNA level without ligand (log10) measured for `UGAAGA` and print it.
Reply: 1.55

Task item: Retrieve normalized RNA/DNA level without ligand (log10) measured for `GGGAGU` and print it.
Reply: 1.63

Task item: Retrieve normalized RNA/DNA level without ligand (log10) measured for `AGCAAC` and print it.
Reply: 1.79

Task item: Retrieve normalized RNA/DNA level without ligand (log10) measured for `UGAGCC` and print it.
Reply: 1.94

Task item: Retrieve normalized RNA/DNA level without ligand (log10) measured for `UUCCUA` and print it.
Reply: 1.89

Task item: Retrieve normalized RNA/DNA level without ligand (log10) measured for `GCCGGA` and print it.
Reply: 1.93

Task item: Retrieve normalized RNA/DNA level without ligand (log10) measured for `UAUUGC` and print it.
Reply: 1.84

Task item: Retrieve normalized RNA/DNA level without ligand (log10) measured for `GUCAUA` and print it.
Reply: 1.81

Task item: Retrieve normalized RNA/DNA level without ligand (log10) measured for `GCUCCG` and print it.
Reply: 1.38

Task item: Retrieve normalized RNA/DNA level without ligand (log10) measured for `UUGUUG` and print it.
Reply: 1.96

Task item: Retrieve normalized RNA/DNA level without ligand (log10) measured for `ACUGCU` and print it.
Reply: 1.86

Task item: Retrieve normalized RNA/DNA level without ligand (log10) measured for `AUCCGU` and print it.
Reply: 1.91

Task item: Retrieve normalized RNA/DNA level without ligand (log10) measured for `ACCAAC` and print it.
Reply: 1.88

Task item: Retrieve normalized RNA/DNA level without ligand (log10) measured for `GAAAUA` and print it.
Reply: 1.85

Task item: Retrieve normalized RNA/DNA level without ligand (log10) measured for `CCCGUA` and print it.
Reply: 1.85

Task item: Retrieve normalized RNA/DNA level without ligand (log10) measured for `CUAGGC` and print it.
Reply: 1.86

Task item: Retrieve normalized RNA/DNA level without ligand (log10) measured for `GGACGG` and print it.
Reply: 1.42

Task item: Retrieve normalized RNA/DNA level without ligand (log10) measured for `CGGGGU` and print it.
Reply: 1.91

Task item: Retrieve normalized RNA/DNA level without ligand (log10) measured for `UGCGUA` and print it.
Reply: 1.86

Task item: Retrieve normalized RNA/DNA level without ligand (log10) measured for `GCCGUG` and print it.
Reply: 1.48

Task item: Retrieve normalized RNA/DNA level without ligand (log10) measured for `GGGCUA` and print it.
Reply: 1.94

Task item: Retrieve normalized RNA/DNA level without ligand (log10) measured for `UGUAUC` and print it.
Reply: 1.92

Task item: Retrieve normalized RNA/DNA level without ligand (log10) measured for `UCCUAC` and print it.
Reply: 1.88

Task item: Retrieve normalized RNA/DNA level without ligand (log10) measured for `AUCACA` and print it.
Reply: 1.84

Task item: Retrieve normalized RNA/DNA level without ligand (log10) measured for `CUCACA` and print it.
Reply: 1.83

Task item: Retrieve normalized RNA/DNA level without ligand (log10) measured for `UGAGCG` and print it.
Reply: 1.7

Task item: Retrieve normalized RNA/DNA level without ligand (log10) measured for `GAGCGG` and print it.
Reply: 1.21

Task item: Retrieve normalized RNA/DNA level without ligand (log10) measured for `UUUGCC` and print it.
Reply: 1.95

Task item: Retrieve normalized RNA/DNA level without ligand (log10) measured for `UUUGAG` and print it.
Reply: 1.54

Task item: Retrieve normalized RNA/DNA level without ligand (log10) measured for `UACCUC` and print it.
Reply: 1.93

Task item: Retrieve normalized RNA/DNA level without ligand (log10) measured for `GUGUCU` and print it.
Reply: 1.85

Task item: Retrieve normalized RNA/DNA level without ligand (log10) measured for `CAGUAU` and print it.
Reply: 1.61

Task item: Retrieve normalized RNA/DNA level without ligand (log10) measured for `UACGGC` and print it.
Reply: 1.79

Task item: Retrieve normalized RNA/DNA level without ligand (log10) measured for `UGUCGA` and print it.
Reply: 1.65

Task item: Retrieve normalized RNA/DNA level without ligand (log10) measured for `UCUUAG` and print it.
Reply: 1.66

Task item: Retrieve normalized RNA/DNA level without ligand (log10) measured for `AGACUA` and print it.
Reply: 1.76

Task item: Retrieve normalized RNA/DNA level without ligand (log10) measured for `GCUAUG` and print it.
Reply: 1.36

Task item: Retrieve normalized RNA/DNA level without ligand (log10) measured for `CUCGGA` and print it.
Reply: 1.84

Task item: Retrieve normalized RNA/DNA level without ligand (log10) measured for `UCCCUU` and print it.
Reply: 1.78

Task item: Retrieve normalized RNA/DNA level without ligand (log10) measured for `GUUUCG` and print it.
Reply: 2.01

Task item: Retrieve normalized RNA/DNA level without ligand (log10) measured for `UAAGGG` and print it.
Reply: 1.44

Task item: Retrieve normalized RNA/DNA level without ligand (log10) measured for `CCAGCU` and print it.
Reply: 1.94

Task item: Retrieve normalized RNA/DNA level without ligand (log10) measured for `GCGUUU` and print it.
Reply: 1.74

Task item: Retrieve normalized RNA/DNA level without ligand (log10) measured for `UUAGGG` and print it.
Reply: 1.69

Task item: Retrieve normalized RNA/DNA level without ligand (log10) measured for `GAGCUA` and print it.
Reply: 1.72

Task item: Retrieve normalized RNA/DNA level without ligand (log10) measured for `CUAACA` and print it.
Reply: 1.84

Task item: Retrieve normalized RNA/DNA level without ligand (log10) measured for `GUAACU` and print it.
Reply: 1.88

Task item: Retrieve normalized RNA/DNA level without ligand (log10) measured for `GUAGAA` and print it.
Reply: 1.72

Task item: Retrieve normalized RNA/DNA level without ligand (log10) measured for `ACUGGC` and print it.
Reply: 1.84

Task item: Retrieve normalized RNA/DNA level without ligand (log10) measured for `UAGAAU` and print it.
Reply: 1.72

Task item: Retrieve normalized RNA/DNA level without ligand (log10) measured for `AUUGAA` and print it.
Reply: 1.75

Task item: Retrieve normalized RNA/DNA level without ligand (log10) measured for `UUGAAC` and print it.
Reply: 1.86

Task item: Retrieve normalized RNA/DNA level without ligand (log10) measured for `AUGUAC` and print it.
Reply: 1.7

Task item: Retrieve normalized RNA/DNA level without ligand (log10) measured for `GUGGGU` and print it.
Reply: 1.79

Task item: Retrieve normalized RNA/DNA level without ligand (log10) measured for `CAUGUA` and print it.
Reply: 1.77

Task item: Retrieve normalized RNA/DNA level without ligand (log10) measured for `AUAGCG` and print it.
Reply: 1.36

Task item: Retrieve normalized RNA/DNA level without ligand (log10) measured for `AAUAGA` and print it.
Reply: 1.63

Task item: Retrieve normalized RNA/DNA level without ligand (log10) measured for `CCGCGA` and print it.
Reply: 1.62

Task item: Retrieve normalized RNA/DNA level without ligand (log10) measured for `UAUUUA` and print it.
Reply: 1.93

Task item: Retrieve normalized RNA/DNA level without ligand (log10) measured for `UGAUCU` and print it.
Reply: 1.94

Task item: Retrieve normalized RNA/DNA level without ligand (log10) measured for `GCUCGA` and print it.
Reply: 1.67

Task item: Retrieve normalized RNA/DNA level without ligand (log10) measured for `UUCUCU` and print it.
Reply: 1.89

Task item: Retrieve normalized RNA/DNA level without ligand (log10) measured for `UCCACU` and print it.
Reply: 1.99

Task item: Retrieve normalized RNA/DNA level without ligand (log10) measured for `GAUGCU` and print it.
Reply: 1.87

Task item: Retrieve normalized RNA/DNA level without ligand (log10) measured for `ACUAGC` and print it.
Reply: 1.79

Task item: Retrieve normalized RNA/DNA level without ligand (log10) measured for `GAUUAA` and print it.
Reply: 1.79

Task item: Retrieve normalized RNA/DNA level without ligand (log10) measured for `UCCGUG` and print it.
Reply: 1.47

Task item: Retrieve normalized RNA/DNA level without ligand (log10) measured for `GGAUUC` and print it.
Reply: 1.94

Task item: Retrieve normalized RNA/DNA level without ligand (log10) measured for `UAAAGC` and print it.
Reply: 1.8

Task item: Retrieve normalized RNA/DNA level without ligand (log10) measured for `UGCAAG` and print it.
Reply: 1.72

Task item: Retrieve normalized RNA/DNA level without ligand (log10) measured for `GGUGUA` and print it.
Reply: 1.76

Task item: Retrieve normalized RNA/DNA level without ligand (log10) measured for `GAAAAU` and print it.
Reply: 1.8

Task item: Retrieve normalized RNA/DNA level without ligand (log10) measured for `CGCCCG` and print it.
Reply: 1.91

Task item: Retrieve normalized RNA/DNA level without ligand (log10) measured for `GAGGCA` and print it.
Reply: 1.92

Task item: Retrieve normalized RNA/DNA level without ligand (log10) measured for `UAACAC` and print it.
Reply: 1.7

Task item: Retrieve normalized RNA/DNA level without ligand (log10) measured for `CACGAC` and print it.
Reply: 1.84

Task item: Retrieve normalized RNA/DNA level without ligand (log10) measured for `CCUACU` and print it.
Reply: 1.96

Task item: Retrieve normalized RNA/DNA level without ligand (log10) measured for `GCAGGG` and print it.
Reply: 1.51

Task item: Retrieve normalized RNA/DNA level without ligand (log10) measured for `GCUAGU` and print it.
Reply: 1.72

Task item: Retrieve normalized RNA/DNA level without ligand (log10) measured for `GUAAUU` and print it.
Reply: 1.9

Task item: Retrieve normalized RNA/DNA level without ligand (log10) measured for `GUGUAC` and print it.
Reply: 1.69

Task item: Retrieve normalized RNA/DNA level without ligand (log10) measured for `UACCAU` and print it.
Reply: 1.83

Task item: Retrieve normalized RNA/DNA level without ligand (log10) measured for `UAACCU` and print it.
Reply: 1.91

Task item: Retrieve normalized RNA/DNA level without ligand (log10) measured for `GGUUAA` and print it.
Reply: 1.77

Task item: Retrieve normalized RNA/DNA level without ligand (log10) measured for `ACAUCA` and print it.
Reply: 1.91

Task item: Retrieve normalized RNA/DNA level without ligand (log10) measured for `GGGCCG` and print it.
Reply: 1.92

Task item: Retrieve normalized RNA/DNA level without ligand (log10) measured for `UCCAGA` and print it.
Reply: 1.78

Task item: Retrieve normalized RNA/DNA level without ligand (log10) measured for `GGCCAU` and print it.
Reply: 1.92

Task item: Retrieve normalized RNA/DNA level without ligand (log10) measured for `UCAGUG` and print it.
Reply: 1.77

Task item: Retrieve normalized RNA/DNA level without ligand (log10) measured for `GUCGGU` and print it.
Reply: 1.83
